target: CDK19 (Homo sapiens); assay: Cell-based QPCR assay of CDK8/19-dependent gene expression, HEK293 CDK8 single-knockout (8KO) cells; parameters: CDK8 single-knockout (8KO); endogenous in cells; host or cells: HEK293 CDK8 knockout (8KO); conditions: HEK293 8KO, 1 h pre-treatment, then 10 ng/mL TNFα 2 h, read-out: IC50, CXCL1 mRNA expression, 8KO
observedProperty: IC50 (nM)
Quick note: give the figure in nM, leave out the unit.

QUERY: Which IC50 is listed for CN(C)C(=O)Cc1ccc(N2CCCN(c3ccnc4sc(C(N)=O)c(N)c34)CC2)cc1 [15w] ?
RESULT: 5.4

----------
target: CDK19 (Homo sapiens, UniProt Q9BWU1); assay: Cell-based QPCR assay of CDK8/19-dependent gene expression, HEK293 CDK8 single-knockout (8KO) cells; design: CDK8 single-knockout (8KO); endogenous in cells; host or cells: HEK293 CDK8 knockout (8KO); details: IC50, CXCL1 mRNA expression, 8KO, HEK293 8KO, 1 h pre-treatment, then 10 ng/mL TNFα 2 h
Sequence (Q9BWU1 whole entry): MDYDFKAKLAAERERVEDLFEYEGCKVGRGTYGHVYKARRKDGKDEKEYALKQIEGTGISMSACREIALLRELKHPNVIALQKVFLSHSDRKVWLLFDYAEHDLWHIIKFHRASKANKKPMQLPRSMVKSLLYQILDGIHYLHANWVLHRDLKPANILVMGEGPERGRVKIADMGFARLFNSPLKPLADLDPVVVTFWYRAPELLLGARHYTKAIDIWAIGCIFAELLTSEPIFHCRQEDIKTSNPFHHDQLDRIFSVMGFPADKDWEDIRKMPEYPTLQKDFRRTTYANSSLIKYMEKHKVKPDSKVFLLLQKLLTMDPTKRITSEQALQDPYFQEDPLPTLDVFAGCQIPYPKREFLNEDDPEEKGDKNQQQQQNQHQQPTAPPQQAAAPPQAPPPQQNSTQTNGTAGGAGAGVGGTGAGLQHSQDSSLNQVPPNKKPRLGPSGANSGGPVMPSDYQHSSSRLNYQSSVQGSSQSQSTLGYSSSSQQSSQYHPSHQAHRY
Sequence (P24863 whole entry partner): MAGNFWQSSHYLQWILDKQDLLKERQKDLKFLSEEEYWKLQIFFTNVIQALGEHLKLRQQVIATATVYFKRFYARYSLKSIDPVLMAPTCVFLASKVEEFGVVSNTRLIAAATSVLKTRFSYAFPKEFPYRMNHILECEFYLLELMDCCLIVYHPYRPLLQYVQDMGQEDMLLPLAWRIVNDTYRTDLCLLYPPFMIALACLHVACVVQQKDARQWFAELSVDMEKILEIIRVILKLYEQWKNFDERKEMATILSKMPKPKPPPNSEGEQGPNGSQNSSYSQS
observedProperty: pIC50
FYI, pIC50 means -log10 of a concentration in mol per litre.

QUERY: Short answer please: pIC50, CDK19 (Homo sapiens, UniProt Q9BWU1), entry CN(C)C1CC23CCC4(O2)C(=CCC2(C)C(c5ccc6ccncc6c5)=CCC24)C=C3C(O)C1O (stereo not drawn) [dCA, 16-didehydro-cortistatin A]
RESULT: 8.96

QUERY: Short answer please: pIC50, CDK19 (Homo sapiens, UniProt Q9BWU1), entry Cn1ncc2cc(-c3cnc(N)c(Cl)c3N3CCC4(CCNC4=O)CC3)ccc21
RESULT: 8.51

QUERY: Short answer please: pIC50, CDK19 (Homo sapiens, UniProt Q9BWU1), entry Cc1n[nH]c2ncc(C(=O)N3CCC[C@H]3c3ccc(Cl)cc3)cc12
RESULT: 8.62

----------
biological target: CDK19 (Homo sapiens); experiment: Cell-based QPCR assay of CDK8/19-dependent gene expression, HEK293 CDK8 single-knockout (8KO) cells; parameters: CDK8 single-knockout (8KO); endogenous in cells; host or cells: HEK293 CDK8 knockout (8KO); details: HEK293 8KO, 1 h pre-treatment, then 10 ng/mL TNFα 2 h, read-out: IC50, CXCL8 mRNA expression, 8KO
observedProperty: IC50 (nM)
Quick note: give the figure in nM, leave out the unit.

QUERY: Which IC50 is listed for CN(C)C(=O)Cc1ccc(N2CCCN(c3ccnc4sc(C(N)=O)c(N)c34)CC2)cc1 [15w] ?
RESULT: 5.4

----------
target: GSK3A (Homo sapiens, UniProt P49840); construct: purchased DiscoverX; assay: KdELECT Kd determination, GSK3A; settings: 11-point 3-fold serial dilution, duplicate; read-out: Kd for the inhibition of nucleotide binding, GSK3A
Sequence (P49840 whole entry): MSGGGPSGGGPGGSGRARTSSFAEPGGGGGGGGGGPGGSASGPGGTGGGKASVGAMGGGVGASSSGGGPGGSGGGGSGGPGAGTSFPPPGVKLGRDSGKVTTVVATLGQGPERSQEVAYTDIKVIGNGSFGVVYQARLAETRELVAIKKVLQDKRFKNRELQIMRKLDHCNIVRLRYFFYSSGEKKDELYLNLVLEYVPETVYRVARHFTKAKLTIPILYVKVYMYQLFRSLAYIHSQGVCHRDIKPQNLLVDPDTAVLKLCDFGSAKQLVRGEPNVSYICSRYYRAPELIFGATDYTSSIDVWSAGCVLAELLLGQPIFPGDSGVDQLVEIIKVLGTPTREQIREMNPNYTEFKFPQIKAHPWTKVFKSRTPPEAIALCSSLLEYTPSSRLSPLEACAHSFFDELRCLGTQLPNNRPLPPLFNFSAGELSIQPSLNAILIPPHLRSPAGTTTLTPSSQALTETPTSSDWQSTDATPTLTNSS
observedProperty: pKd
FYI, pKd means -log10 of a concentration in mol per litre.

QUERY: Which pKd is listed for Cc1n[nH]c2ncc(C(=O)N3CCC[C@H]3c3ccc(Cl)cc3)cc12 [Cmpd4] ?
RESULT: 6.35

----------
target: CDK8 (Homo sapiens, UniProt P49336); assay: KdELECT Kd determination, CDK8; type: binding; set-up: purchased DiscoverX
Sequence (P49336 whole entry): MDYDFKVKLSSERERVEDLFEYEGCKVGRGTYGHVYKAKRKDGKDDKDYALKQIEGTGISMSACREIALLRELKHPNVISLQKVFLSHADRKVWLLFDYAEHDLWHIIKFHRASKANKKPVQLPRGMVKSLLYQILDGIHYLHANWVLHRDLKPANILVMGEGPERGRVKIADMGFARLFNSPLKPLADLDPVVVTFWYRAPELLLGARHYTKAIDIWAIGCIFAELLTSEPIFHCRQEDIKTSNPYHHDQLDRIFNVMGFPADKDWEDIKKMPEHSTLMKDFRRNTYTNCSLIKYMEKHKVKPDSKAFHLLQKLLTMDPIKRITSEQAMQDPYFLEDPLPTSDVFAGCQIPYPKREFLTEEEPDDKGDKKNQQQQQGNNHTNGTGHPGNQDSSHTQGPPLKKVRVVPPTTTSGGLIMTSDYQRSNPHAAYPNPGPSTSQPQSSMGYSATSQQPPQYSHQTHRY
observedProperty: Kd (µM)
Quick note: give the figure in µM, leave out the unit.

QUERY: Which Kd is listed for Cc1n[nH]c2ncc(C(=O)N3CCC[C@H]3c3ccc(Cl)cc3)cc12 ?
RESULT: 0.115
